Catalogue of Neut IC50 (ug/ml) subtype B readings, one per entry.
Biological target: RSV F protein of subtype B strain 18537, on virus (respiratory syncytial virus subtype B …, UniProt P13843 26-574)
Sequence (P13843 26-574): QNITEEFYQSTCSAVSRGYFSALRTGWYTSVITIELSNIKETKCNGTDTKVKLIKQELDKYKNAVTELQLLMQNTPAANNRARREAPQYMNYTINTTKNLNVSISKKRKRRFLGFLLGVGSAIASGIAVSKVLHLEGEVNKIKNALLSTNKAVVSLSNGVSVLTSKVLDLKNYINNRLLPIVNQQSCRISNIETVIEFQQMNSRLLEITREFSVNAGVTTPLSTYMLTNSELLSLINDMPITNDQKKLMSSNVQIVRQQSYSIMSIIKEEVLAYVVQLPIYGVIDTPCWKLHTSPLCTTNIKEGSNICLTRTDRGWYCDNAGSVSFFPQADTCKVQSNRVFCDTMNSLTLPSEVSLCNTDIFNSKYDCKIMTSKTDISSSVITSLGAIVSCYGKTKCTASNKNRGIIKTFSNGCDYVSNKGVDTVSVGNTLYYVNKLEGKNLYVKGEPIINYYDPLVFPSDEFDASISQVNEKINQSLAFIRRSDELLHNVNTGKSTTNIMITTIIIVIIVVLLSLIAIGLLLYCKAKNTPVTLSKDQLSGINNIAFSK
Assay: cell-based or functional assay

>  <binder>
ADI-15633 (antibody, V domains shown, IgG) VH: QVQLVQSGAEVKKPGESLKISCKGSGYTFRMYWIGWARLLPGKGLEWIGIIYPGDSDTRYNPSLQGQVTMSVDKSINTAYLQWGSLKASDSAIYYCARLRLHPQSGMDVWGQGTLVTVSS VL: NFMLTQPHSVSESPGKTVVISCTRSSGSIAGYYVQWYQHRPGSSPTTVIYEDDQRPSGVPDRFSGSVDSSSNSASLTISGLKTEDEADYYCQSYDNAIWVFGGGTKLTVL

>  <Neut IC50 (ug/ml) subtype B>
> 10 µg/mL

$$$$
>  <binder>
ADI-15642 (antibody, V domains shown, IgG; also called Antibody Number 206) VH: EVQLVESGGGLIQPGGSLRLSCAASGFTVSSKYMSWVRQAPGKGLEWVSIIYSGGSTYHADSVKGRFTISRDNSKNTLYLQMNSLRAEDTAVYYCARDDYDFWSGNGPPEMAVWGQGTTVTVSS VL: DIRMTQSPSSLSASVGDRVTITCRASQGISNYLAWYQQKPGKVPKLLIYAASTLQSGVPSRFSGSGSETDFTLTISSLQPEDVATYYCQKYNSVPLTFGQGTKVEIK

>  <Neut IC50 (ug/ml) subtype B>
0.005 µg/mL

$$$$
>  <binder>
ADI-15666 (antibody, V domains shown, IgG; also called Antibody Number 230) VH: QVQLQQWGAGLLKPSETLSLTCGVSDGSFSAYYWNWIRQSPGKGLEWIGETNPSENTNYSPSLKNRVTISADRSANQFSLRLRSVTAADTGVYYCARGRGYYGSTTDYRGLHWFDPWGQGTLVTVSS VL: ETTLTQSPVTLSVSPGERATLSCRASQSVSFNLAWYQQKPGQAPRLLIYGASTRVTNLPLRFSGSGSGTEFTLTISSLQSEDFAVYYCQQYNNWPRTFGQGTKLEIK

>  <Neut IC50 (ug/ml) subtype B>
> 10 µg/mL

$$$$
